# reported IC50; entries follow
ASSAY TARGET: TMPRSS2 (Homo sapiens, UniProt O15393)
Sequence (O15393 256-492): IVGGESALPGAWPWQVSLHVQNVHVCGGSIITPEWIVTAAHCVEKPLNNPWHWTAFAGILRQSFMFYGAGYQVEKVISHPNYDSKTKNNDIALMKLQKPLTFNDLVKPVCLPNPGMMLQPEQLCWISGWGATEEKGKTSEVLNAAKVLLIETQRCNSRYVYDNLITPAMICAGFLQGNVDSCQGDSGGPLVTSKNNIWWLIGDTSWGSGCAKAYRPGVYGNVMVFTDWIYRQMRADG
Sequence (O15393 other isoform, or with tags, fused parts or gaps): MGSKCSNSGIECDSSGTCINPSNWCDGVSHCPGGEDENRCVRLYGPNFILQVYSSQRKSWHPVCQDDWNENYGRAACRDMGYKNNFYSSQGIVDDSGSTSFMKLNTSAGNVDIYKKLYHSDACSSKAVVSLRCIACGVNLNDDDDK
ASSAY DETAILS: biochemical
Type: biochemical
RUN CONDITIONS: 0.5 nM TMPRSS2, 10 μM substrate; mean ± SD, four replicates
MEASURED PARAMETER: IC50 (nM)

- MOL SMILES: "NC(N)=Nc1ccc(C(=O)OCCN2CCN(C(=O)N[C@@H](Cc3ccccc3)C(=O)N[C@H](/C=C/S(=O)(=O)c3ccccc3)CCc3ccccc3)CC2)cc1"
  ASSAY TARGET: "TMPRSS2 (Homo sapiens, UniProt O15393)"
  MEASUREMENT: 1380
- MOL SMILES: "CC(C)(NS(=O)(=O)c1ccc2c(Cl)cnc(N=C(N)N)c2c1)C(=O)O"
  ASSAY TARGET: "TMPRSS2 (Homo sapiens, UniProt O15393)"
  MEASUREMENT: 4.59
